- Experimental system: T1, Human CD19-his protein (human, UniProt P15391 20-291)
- T1 construct: bought protein; also called recombinant human CD19-His; CD19 full-length protein; not shown: His tag
- T1 sequence (looked up): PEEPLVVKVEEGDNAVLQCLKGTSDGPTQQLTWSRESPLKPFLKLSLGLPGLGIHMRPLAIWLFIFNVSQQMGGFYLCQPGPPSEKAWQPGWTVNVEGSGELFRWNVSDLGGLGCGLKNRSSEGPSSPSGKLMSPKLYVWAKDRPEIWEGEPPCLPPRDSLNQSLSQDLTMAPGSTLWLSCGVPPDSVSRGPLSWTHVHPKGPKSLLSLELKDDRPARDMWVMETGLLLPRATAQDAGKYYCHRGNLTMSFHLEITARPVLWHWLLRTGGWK
- Test name: ELISA, coated human CD19-His
Experimental endpoint: OD450 at 100 nM (OD450)
Answer with a number only, understood to be in OD450.

Below, each entry is followed by its recorded OD450 at 100 nM result.
Binder | Measurement
F3.121.4-L2H1 (antibody, mouse IgG1, kappa, V domains shown, humanized antibody of F3.121.4, VL2+VH1, murine IgG1 constant regions) VH: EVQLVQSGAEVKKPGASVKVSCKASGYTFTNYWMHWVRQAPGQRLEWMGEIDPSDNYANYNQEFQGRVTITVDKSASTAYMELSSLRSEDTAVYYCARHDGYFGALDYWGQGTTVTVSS VL: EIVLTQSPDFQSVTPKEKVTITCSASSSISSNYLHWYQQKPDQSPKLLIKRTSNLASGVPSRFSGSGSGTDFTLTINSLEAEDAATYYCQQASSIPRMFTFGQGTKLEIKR | 2.57
F3.121.4-L2H2 (antibody, mouse IgG1, kappa, V domains shown, humanized antibody of F3.121.4, VL2+VH2, murine IgG1 constant regions) VH: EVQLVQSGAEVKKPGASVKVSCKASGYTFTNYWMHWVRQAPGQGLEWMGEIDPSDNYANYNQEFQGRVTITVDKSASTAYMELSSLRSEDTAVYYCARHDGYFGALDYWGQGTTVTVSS VL: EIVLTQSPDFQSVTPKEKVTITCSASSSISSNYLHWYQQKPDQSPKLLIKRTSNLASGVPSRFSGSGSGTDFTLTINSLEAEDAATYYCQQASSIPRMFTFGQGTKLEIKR | 2.55
F3.121.4-L1H2 (antibody, mouse IgG1, kappa, V domains shown, humanized antibody of F3.121.4, VL1+VH2, murine IgG1 constant regions) VH: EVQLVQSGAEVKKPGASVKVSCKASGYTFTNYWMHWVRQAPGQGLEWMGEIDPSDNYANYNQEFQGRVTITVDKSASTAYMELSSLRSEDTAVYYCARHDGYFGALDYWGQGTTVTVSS VL: EIVLTQSPATLSLSPGERATLSCSASSSISSNYLHWYQQKPGQAPRFLIYRTSNLASGIPARFSGSGSGTDFTLTISSLEPEDFAVYYCQQASSIPRMFTFGQGTKLEIKR | 3

Now for the binder whose OD450 at 100 nM we want.
**Q:** Using known records, supply OD450 at 100 nM for F3.121.4-L3H1 (antibody, mouse IgG1, kappa, V domains shown, humanized antibody of F3.121.4, VL3+VH1, murine IgG1 constant regions) VH: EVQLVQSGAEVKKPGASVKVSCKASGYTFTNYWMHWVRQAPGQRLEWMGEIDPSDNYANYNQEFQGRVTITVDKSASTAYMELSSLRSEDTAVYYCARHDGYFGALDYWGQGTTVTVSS VL: EIVLTQSPDFQSVTPKEKVTITCSASSSISSNYLHWYQQKPDQSPKFLIYRTSNLASGVPSRFSGSGSGTDFTLTINSLEAEDAATYYCQQASSIPRMFTFGQGTKLEIKR
**A:** 2.17
